Biological target: MRP4 (ABCC4) (Homo sapiens)
Assay: TP_TRANSPORTER: inhibition of Taurocholate uptake in the presence of Glycocholate at a concentration of 20uM in membrane vesicles from MRP4-expressing V79 cells
Format: functional, cell membranes, Membrane vesicle
Design: scale not given: the % may be the effect or the level left
Details: hamster, probe taurocholate, read-out: Activity

[
  {
    "chemical-string": "C[C@H](CCC(=O)NCC(=O)O)[C@H]1CC[C@H]2[C@@H]3[C@H](O)C[C@@H]4C[C@H](O)CC[C@]4(C)[C@H]3C[C@H](O)[C@]12C",
    "activity at 20 µM (%)": 45
  }
]

* * *

Target: MRP4 (ABCC4) (Homo sapiens)
Test: TP_TRANSPORTER: inhibition of Taurocholate uptake in the presence of Folate at a concentration of 20uM in membrane vesicles from MRP4-expressing V79 cells
Assay type: functional, cell membranes, Membrane vesicle
Parameters: scale not given: the % may be the effect or the level left
Conditions: hamster, probe taurocholate, read-out: Activity

[
  {
    "chemical-string": "Nc1nc2ncc(CNc3ccc(C(=O)N[C@@H](CCC(=O)O)C(=O)O)cc3)nc2c(=O)[nH]1",
    "unit-name": "%",
    "activity at 20 µM": 63
  }
]

* * *

Target: MRP4 (ABCC4) (Homo sapiens, UniProt O15439)
Sequence (O15439 whole entry): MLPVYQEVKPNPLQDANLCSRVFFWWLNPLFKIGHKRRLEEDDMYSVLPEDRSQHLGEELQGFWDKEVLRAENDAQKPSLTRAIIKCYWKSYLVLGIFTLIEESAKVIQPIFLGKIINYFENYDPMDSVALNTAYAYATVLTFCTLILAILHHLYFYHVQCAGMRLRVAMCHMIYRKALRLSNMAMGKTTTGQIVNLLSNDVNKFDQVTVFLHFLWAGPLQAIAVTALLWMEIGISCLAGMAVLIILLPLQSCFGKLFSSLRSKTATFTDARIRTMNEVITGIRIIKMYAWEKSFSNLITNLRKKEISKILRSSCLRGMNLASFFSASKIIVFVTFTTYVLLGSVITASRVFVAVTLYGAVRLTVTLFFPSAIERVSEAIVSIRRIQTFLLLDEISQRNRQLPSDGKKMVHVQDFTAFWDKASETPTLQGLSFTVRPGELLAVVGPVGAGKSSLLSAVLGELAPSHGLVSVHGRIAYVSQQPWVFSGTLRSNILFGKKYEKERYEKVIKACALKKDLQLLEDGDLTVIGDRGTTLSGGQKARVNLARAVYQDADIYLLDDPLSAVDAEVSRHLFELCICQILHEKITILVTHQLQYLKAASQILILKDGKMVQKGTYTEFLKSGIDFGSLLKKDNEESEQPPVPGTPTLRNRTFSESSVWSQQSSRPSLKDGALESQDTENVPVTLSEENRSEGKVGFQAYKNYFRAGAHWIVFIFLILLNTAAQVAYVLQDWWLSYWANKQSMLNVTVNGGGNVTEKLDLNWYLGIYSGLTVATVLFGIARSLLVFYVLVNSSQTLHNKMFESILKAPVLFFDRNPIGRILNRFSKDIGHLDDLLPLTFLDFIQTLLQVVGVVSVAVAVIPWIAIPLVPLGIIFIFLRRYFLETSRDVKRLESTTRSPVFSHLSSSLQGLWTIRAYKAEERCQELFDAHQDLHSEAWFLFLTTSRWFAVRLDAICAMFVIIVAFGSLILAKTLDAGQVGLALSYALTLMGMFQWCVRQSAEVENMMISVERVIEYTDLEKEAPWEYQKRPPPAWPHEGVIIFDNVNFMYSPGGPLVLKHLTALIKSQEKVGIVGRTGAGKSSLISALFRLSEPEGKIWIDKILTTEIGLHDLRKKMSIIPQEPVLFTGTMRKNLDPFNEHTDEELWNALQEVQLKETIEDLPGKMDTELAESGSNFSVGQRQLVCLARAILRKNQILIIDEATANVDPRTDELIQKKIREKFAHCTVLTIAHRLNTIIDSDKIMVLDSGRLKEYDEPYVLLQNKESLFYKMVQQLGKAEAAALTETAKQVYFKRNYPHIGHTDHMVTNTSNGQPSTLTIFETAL
Test: TP_TRANSPORTER: inhibition of Taurocholate uptake in the presence of Lithoglycocholate at a concentration of 20uM in membrane vesicles from MRP4-expressing V79 cells
Format: functional, cell membranes, Membrane vesicle
Set-up: scale not given: the % may be the effect or the level left
Details: hamster, probe taurocholate, read-out: Activity

[
  {
    "compound": "C[C@H](CCC(=O)NCC(=O)O)[C@H]1CC[C@H]2[C@@H]3CC[C@@H]4C[C@H](O)CC[C@]4(C)[C@H]3CC[C@]12C [LITHOGLYCOCHOLATE]",
    "activity at 20 µM [%]": 9
  }
]

* * *

Molecular target: MRP4 (ABCC4) (Homo sapiens)
Assay: TP_TRANSPORTER: inhibition of Taurocholate uptake by Taurochenodeoxycholate at a concentration of 20uM in membrane vesicles from MRP4-expressing V79 cells
Format: functional, cell membranes, Membrane vesicle
Parameters: scale not given: the % may be the effect or the level left
Conditions: hamster, probe taurocholate, read-out: Activity

[
  {
    "compound": "C[C@H](CCC(=O)NCCS(=O)(=O)O)[C@H]1CC[C@H]2[C@@H]3[C@H](O)C[C@@H]4C[C@H](O)CC[C@]4(C)[C@H]3CC[C@]12C [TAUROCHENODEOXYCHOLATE]",
    "activity at 20 µM / %": 11
  }
]

* * *

Molecular target: MRP4 (ABCC4) (Homo sapiens)
Experiment: TP_TRANSPORTER: inhibition of Taurocholate uptake in the presence of Dipyridamole at a concentration of 20uM in membrane vesicles from MRP4-expressing V79 cells
Assay type: functional, cell membranes, Membrane vesicle
Set-up: scale not given: the % may be the effect or the level left
Conditions: hamster, probe taurocholate, read-out: Activity

[
  {
    "chemical-string": "OCCN(CCO)c1nc(N2CCCCC2)c2nc(N(CCO)CCO)nc(N3CCCCC3)c2n1",
    "activity at 20 µM (%)": 32
  }
]

* * *

Target: MRP4 (ABCC4) (Homo sapiens, UniProt O15439)
Assay: TP_TRANSPORTER: inhibition of Taurocholate uptake in the presence of Ursodeoxycholate at a concentration of 20uM in membrane vesicles from MRP4-expressing V79 cells
Type: functional, cell membranes, Membrane vesicle
Set-up: scale not given: the % may be the effect or the level left
Settings: hamster, probe taurocholate, read-out: Activity
recorded-endpoint: activity at 20 µM (%)

[
  {
    "chemical-string": "C[C@H](CCC(=O)O)[C@H]1CC[C@H]2[C@@H]3[C@@H](O)C[C@@H]4C[C@H](O)CC[C@]4(C)[C@H]3CC[C@]12C",
    "recorded-endpoint": "activity at 20 µM",
    "reported-measurement": 18
  }
]
